- Test system: Saccharomyces cerevisiae
- assay method text: transcriptional activation domain activity (GFP:mCherry ratio, weighted mean of sorted bins, harmonized to initial dataset scale) (arbitrary fluorescence ratio units); higher = stronger transcriptional activation
- run conditions: beta-estradiol 1 µM; induction time 4 h
readout type: transcriptional activation domain activity
Response field accepts a number only; no unit should be typed.

**Q:** Any idea what its transcriptional activation domain activity is? The sequence is MKGVCLKVGVVRPKKPNSGERKTARVRLSNGRQVTAYISGEGHNIQQHSVVLV
**A:** 53500

**Q:** Moving on to the next sequence: MASSTSPSPSTTSIKSEVAPGRTVACLRCRGRRQFCSKERPQCKKCRDARAEC
**A:** 28800

**Q:** // query: EAEDDEEDADAAGGKKPKAKKRKRESTVKESAEEKKGKRKRASEQLAKQRRGK
**A:** 22600
